- testTarget: GST-importin α5 (aa 400–538) (human, UniProt P52294 400-538)
- Sequence (P52294 400-538): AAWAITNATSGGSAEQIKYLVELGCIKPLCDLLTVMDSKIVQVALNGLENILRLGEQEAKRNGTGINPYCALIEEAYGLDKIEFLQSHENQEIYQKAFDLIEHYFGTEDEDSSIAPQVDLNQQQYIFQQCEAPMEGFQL
- protocol: SPR
readoutType: pKd
One number for each entry, as −log10 of the molar value.

- binder: "KEREKKREKEEKKRLELEKKEQKEKEKKEQEIKKK [ADAP NLS1 peptide]"
  readoutType: "pKd"
  recordedMeasurement: 8.57

Next up:
# query: pKd of entry KAKTEEKDLKKLKKQEKEEKDFRKKFK [ADAP NLS2 peptide]
8.62
